Record form. Attribute: Tmax. Fill in for each entry.
# protocol summary: Study on pharmacokinetics in rats, oral administration
# Assay type: in vivo, SD rat
# reported conditions: SD, rat, plasma; individual rats; oral 10.0 mg · kg^−1
Answers are plain numbers, in h.

Reference set (2 entries):
NN1CC(=O)N2[C@H](c3ccc4c(c3)OCO4)c3[nH]c4ccccc4c3C[C@@H]2C1=O : 0.25
[2H]C1([2H])Oc2ccc([C@@H]3c4[nH]c5ccccc5c4C[C@@H]4C(=O)N(N)CC(=O)N34)cc2O1 : 2

// moving on: another record for Tmax
The measured Tmax associated with CN1CC(=O)N2[C@H](c3ccc4c(c3)OCO4)c3[nH]c4ccccc4c3C[C@@H]2C1=O reads 4

* * *

Would you mind telling me the reported pIC50 of each entry?
# target or system: UniProtKB O76074
Answers are plain numbers, as −log10 of the molar value.

[2H]C1([2H])Oc2ccc([C@@H]3c4[nH]c5ccccc5c4C[C@@H]4C(=O)N(N)CC(=O)N34)cc2O1 : 7.47

Now let's try a different one.
The reported pIC50 of the compound NN1CC(=O)N2[C@H](c3ccc4c(c3)OCO4)c3[nH]c4ccccc4c3C[C@@H]2C1=O was 6.25

* * *

# target or system: UniProt:P51160
# Sequence (P51160 whole entry): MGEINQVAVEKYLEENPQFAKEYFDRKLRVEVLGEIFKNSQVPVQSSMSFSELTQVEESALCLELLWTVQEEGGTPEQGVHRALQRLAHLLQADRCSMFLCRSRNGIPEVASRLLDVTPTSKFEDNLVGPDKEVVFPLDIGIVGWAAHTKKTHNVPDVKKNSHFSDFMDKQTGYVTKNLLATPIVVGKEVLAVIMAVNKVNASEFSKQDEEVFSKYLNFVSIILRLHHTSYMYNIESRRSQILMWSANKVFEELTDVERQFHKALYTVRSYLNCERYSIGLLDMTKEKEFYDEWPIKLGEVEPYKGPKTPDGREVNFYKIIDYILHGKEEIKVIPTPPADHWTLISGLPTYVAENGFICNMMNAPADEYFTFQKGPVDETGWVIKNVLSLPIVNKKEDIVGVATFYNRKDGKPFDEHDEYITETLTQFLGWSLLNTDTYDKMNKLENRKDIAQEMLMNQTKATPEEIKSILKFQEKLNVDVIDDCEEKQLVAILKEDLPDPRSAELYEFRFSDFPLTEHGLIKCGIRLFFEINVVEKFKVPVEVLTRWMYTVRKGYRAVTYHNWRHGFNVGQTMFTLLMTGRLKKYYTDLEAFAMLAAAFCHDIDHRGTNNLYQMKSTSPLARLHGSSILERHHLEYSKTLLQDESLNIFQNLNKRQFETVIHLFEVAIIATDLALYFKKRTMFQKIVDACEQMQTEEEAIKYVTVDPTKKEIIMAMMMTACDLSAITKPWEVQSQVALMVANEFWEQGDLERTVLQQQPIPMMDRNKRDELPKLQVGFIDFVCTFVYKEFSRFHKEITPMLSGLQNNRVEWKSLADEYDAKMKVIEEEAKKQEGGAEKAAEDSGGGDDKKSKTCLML
property measured: IC50

The recorded IC50 with UniProt:P51160 for [2H]C1([2H])Oc2ccc([C@@H]3c4[nH]c5ccccc5c4C[C@@H]4C(=O)N(N)CC(=O)N34)cc2O1 was 14.7 µM

* * *

# protocol summary: Study on pharmacokinetics in rats, oral administration
# Assay type: in vivo, SD rat
# reported conditions: SD, rat, plasma, po, 10 mg/kg, individual rats; oral 10.0 mg · kg^−1; read-out: AUC0-inf
property measured: AUC0-inf

The cases that follow already have their AUC0-inf on record.
[2H]C1([2H])Oc2ccc([C@@H]3c4[nH]c5ccccc5c4C[C@@H]4C(=O)N(N)CC(=O)N34)cc2O1 [DDCI-01] : 9980 ng·h/mL
CN1CC(=O)N2[C@H](c3ccc4c(c3)OCO4)c3[nH]c4ccccc4c3C[C@@H]2C1=O [Cialis] : 8810 ng·h/mL

Now consider the entry below.
Entry NN1CC(=O)N2[C@H](c3ccc4c(c3)OCO4)c3[nH]c4ccccc4c3C[C@@H]2C1=O [DDCI02] , AUC0-inf reported as 18600 ng·h/mL

* * *

# protocol summary: Study on pharmacokinetics in rats, oral administration
# Format: in vivo, SD rat
# reported conditions: SD, rat, plasma, po, 10 mg/kg, individual rats; oral 10.0 mg · kg^−1
property measured: half-life

CN1CC(=O)N2[C@H](c3ccc4c(c3)OCO4)c3[nH]c4ccccc4c3C[C@@H]2C1=O : 3.46 h
NN1CC(=O)N2[C@H](c3ccc4c(c3)OCO4)c3[nH]c4ccccc4c3C[C@@H]2C1=O : 4.85 h

For record [2H]C1([2H])Oc2ccc([C@@H]3c4[nH]c5ccccc5c4C[C@@H]4C(=O)N(N)CC(=O)N34)cc2O1 the listed half-life is 2.12 h

* * *

# protocol summary: Study on pharmacokinetics in rats, oral administration
# Type: in vivo, SD rat
# reported conditions: SD, rat, plasma, po, 10 mg/kg, individual rats; oral 10.0 mg · kg^−1; read-out: Cmax
Kindly state Cmax for each of the entries shown.
Give bare numbers, in ng/mL.

Items follow; give Cmax for each.
1. NN1CC(=O)N2[C@H](c3ccc4c(c3)OCO4)c3[nH]c4ccccc4c3C[C@@H]2C1=O [DDCI02]
2. [2H]C1([2H])Oc2ccc([C@@H]3c4[nH]c5ccccc5c4C[C@@H]4C(=O)N(N)CC(=O)N34)cc2O1 [DDCI-01]

Reply:
1. 4580
2. 1300

Reference for the values: patent US9920057B2
